Biological target: T1, human PVRIG expressed on cells (human, UniProt Q6DKI7 41-326)
T1 sequence (looked up): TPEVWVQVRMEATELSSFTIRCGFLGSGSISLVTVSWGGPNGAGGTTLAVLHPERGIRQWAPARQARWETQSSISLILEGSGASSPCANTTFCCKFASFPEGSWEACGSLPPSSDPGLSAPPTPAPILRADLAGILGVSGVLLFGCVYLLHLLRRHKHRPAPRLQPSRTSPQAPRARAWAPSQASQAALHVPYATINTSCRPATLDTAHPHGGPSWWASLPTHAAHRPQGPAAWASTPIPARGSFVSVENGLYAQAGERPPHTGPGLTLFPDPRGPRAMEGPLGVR
Experiment: cell-based or functional assay
Entries and their NK92 killing of K562, killing activity (%), 100 nM antibody values follow.
Hi, when you answer, please include the unit after the number. Thanks!

Worked set:
1) anti-PVRIG antibody 151 (antibody, human IgG4 S228P, F234A L235A, V domains shown, no light chain) VH: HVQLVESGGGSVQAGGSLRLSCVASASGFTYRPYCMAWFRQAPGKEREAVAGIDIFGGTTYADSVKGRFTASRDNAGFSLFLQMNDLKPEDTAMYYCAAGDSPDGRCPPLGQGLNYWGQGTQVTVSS :: 33%
2) anti-PVRIG antibody 30 (antibody, human IgG4 S228P, F234A L235A, V domains shown, no light chain) VH: HVQLVESGGGSVQAGGSLRLSCEASGYSYSGDCMGWFRRAPGKERDEGVATIDNAGRIKYADSVKGRFTISHGNGKYILYLQMNSLKPEDTDMYYCAAGWTFGGNCSPADWGQGTQVTVSS :: 39%
3) positive antibody Tab5 (antibody, human IgG4 S228P, kappa, F234A L235A, V domains shown, Variable regions of CPA.7.021 (WO2016134333A1) on human IgG4 (S228P/F234A/L235A/K447A) and human kappa constant regions) VH: EVQLVESGGGVVKPGGSLRLSCAASGFTFGTSSMNWVRQAPGKGLEWVAVISFDGTEIHYADSVKGRFTISRDNSKSTVFLQMNSLRPDDTALYYCAKGSGNIYFYSGMDVWGQGTTVTVSS VL: DIQMTQSPSTLSASVGDRVTITCRAGQSISGWLAWFQQKPGKAPNLLIYETSTLESGVPSRFSGSGSGTEYTLTISSLQPDDFATYYCQQYYSYPLTFGQGTKVEIKR :: 32%
4) anti-PVRIG antibody 38 (antibody, human IgG4 S228P, F234A L235A, V domains shown, no light chain) VH: QVQLVESGGGSVQAGGSLRLSCAASPSTYGPSDMAWFRQAPGKQREGVATISAAGRLTYYTDSVRGRFTISRDNAKNTMYLQMNSLKPEDTAMYYCAADFAGGSSLFADYKYWGQGTQVTVSS :: 27%

Kindly consider the entry below.
Record anti-PVRIG antibody 39 (antibody, human IgG4 S228P, F234A L235A, V domains shown, no light chain) VH: QVQLVESGGGSVQAGGSLRLSCAASRYTSRTDCMGWFRQAPGKEREGVAHIDSDGIPRYVESVKGRFTISQDHAKNTLYLQMNSLKPEDSATYYCVVGFKFGDYCAPNDWGQGTQVTVSS , field NK92 killing of K562, killing activity (%), 100 nM antibody: 30%
